Values from the Human Domainome abundance scans (Beltran et al. 2025)

B1: REST corepressor 3, residues 87 to 134; numbered along this chain, Q9P2K3 (parent)
chain: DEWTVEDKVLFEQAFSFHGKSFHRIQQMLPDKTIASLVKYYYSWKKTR

variants of: B1; assay: abundance fitness (aPCA) (normalised: wild type 0, dead -1); higher = more abundant; growth selection in yeast, the domain comes from the species named; conditions: Homo sapiens
Classify by measured abundance fitness: fulfilled if it is equal to or exceeds -0.7, not fulfilled if it is smaller.

[
  {
    "chain": "DEWTVEDKVLFEQAFSFHGKSFHRIQQMLPDKTIASLVKYYYSWKKAR [T47A]",
    "label-value": "fulfilled"
  },
  {
    "chain": "DEWTVEDKVLFEQAFSFHGKWFHRIQQMLPDKTIASLVKYYYSWKKTR [S21W]",
    "label-value": "fulfilled"
  },
  {
    "chain": "DEWTVEDKVLFEQAFSFHGKSFPRIQQMLPDKTIASLVKYYYSWKKTR [H23P]",
    "label-value": "fulfilled"
  },
  {
    "chain": "DEWTVEDKVLFEQAFSFHGKSFHRIQQMLPDKTPASLVKYYYSWKKTR [I34P]",
    "label-value": "not fulfilled"
  },
  {
    "chain": "DEWTVEDKVLFEQAFSFHGKSFHRIQQMLPDKHIASLVKYYYSWKKTR [T33H]",
    "label-value": "not fulfilled"
  },
  {
    "chain": "DEWTVEDKVLFEQAFSFHGKSFHRIQQMLPDKTIASLVKYYYSSKKTR [W44S]",
    "label-value": "fulfilled"
  },
  {
    "chain": "DEWTVEDLVLFEQAFSFHGKSFHRIQQMLPDKTIASLVKYYYSWKKTR [K8L]",
    "label-value": "not fulfilled"
  },
  {
    "chain": "DEWTVEDKVLFEQAFSFHGKSFHRIQQMLPDQTIASLVKYYYSWKKTR [K32Q]",
    "label-value": "not fulfilled"
  },
  {
    "chain": "DEWTVEDKVLFEQAFSFHGKSKHRIQQMLPDKTIASLVKYYYSWKKTR [F22K]",
    "label-value": "fulfilled"
  },
  {
    "chain": "DEWTVEDKVLFEQAFSFHGKSFHRIQQMLPDKTIASEVKYYYSWKKTR [L37E]",
    "label-value": "fulfilled"
  },
  {
    "chain": "DEWTVEDKVLDEQAFSFHGKSFHRIQQMLPDKTIASLVKYYYSWKKTR [F11D]",
    "label-value": "not fulfilled"
  },
  {
    "chain": "DEWTVEDKVLFEQAFSFHGKSFHRIQQMLPDKTIASLYKYYYSWKKTR [V38Y]",
    "label-value": "fulfilled"
  },
  {
    "chain": "DEWTVEDKVLFEQAFSFHGKSFHRIQQMLPDKTIASLVKYYGSWKKTR [Y42G]",
    "label-value": "fulfilled"
  },
  {
    "chain": "DEWTVEDKVLVEQAFSFHGKSFHRIQQMLPDKTIASLVKYYYSWKKTR [F11V]",
    "label-value": "not fulfilled"
  },
  {
    "chain": "DEWTVEDKVLFEQAFSFHGKSFHRIQQMLPDKTIAQLVKYYYSWKKTR [S36Q]",
    "label-value": "fulfilled"
  },
  {
    "chain": "DEWTVEDKVLFEQAFEFHGKSFHRIQQMLPDKTIASLVKYYYSWKKTR [S16E]",
    "label-value": "fulfilled"
  },
  {
    "chain": "DEWTVEDKVLFEQAFSFHGKSFHRIQQMLPDKTIASLVKYYYSWKATR [K46A]",
    "label-value": "fulfilled"
  },
  {
    "chain": "DEWTVEDKVLFEQAFSFHGKSFHRIQQLLPDKTIASLVKYYYSWKKTR [M28L]",
    "label-value": "fulfilled"
  },
  {
    "chain": "DEWTVEDKVLFEQAFSFHGKSFSRIQQMLPDKTIASLVKYYYSWKKTR [H23S]",
    "label-value": "fulfilled"
  }
]
